Biological target: T1, sIL-6R (soluble IL-6 receptor; SBH Sciences) (human, UniProt P08887 20-365)
T1 construct: also called human IL-6R
T1 sequence: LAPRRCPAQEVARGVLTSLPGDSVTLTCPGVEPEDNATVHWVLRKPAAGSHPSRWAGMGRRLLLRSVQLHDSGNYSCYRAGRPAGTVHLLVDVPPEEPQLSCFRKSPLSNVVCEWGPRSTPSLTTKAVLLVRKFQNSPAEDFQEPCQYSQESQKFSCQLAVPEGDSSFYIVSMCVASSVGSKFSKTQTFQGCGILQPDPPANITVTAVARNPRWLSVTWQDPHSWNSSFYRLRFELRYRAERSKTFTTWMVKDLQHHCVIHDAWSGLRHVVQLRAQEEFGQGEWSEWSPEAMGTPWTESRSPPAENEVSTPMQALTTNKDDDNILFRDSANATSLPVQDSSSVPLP
Assay: SPR (BIAcore 3000), antibody on chip, sIL-6R analyte, 25 C
readout.kind: kon (M⁻¹ s⁻¹)
Dear colleague, please return just the value in M⁻¹ s⁻¹, with no unit written.

binder: 8# (antibody, human IgG1, kappa, V domains shown, also called Sample # 8) VH: QVQLQESGPGLVRPSQTLSLTCTVSGYSITSDHAWSWVRQPPGRGLEWIGFISYSGITTYNPSLKSRVTMLRDTSKNQFSLRLSSVTAADTAVYYCARSLARTTAMDFWGQGSLVTVSS VL: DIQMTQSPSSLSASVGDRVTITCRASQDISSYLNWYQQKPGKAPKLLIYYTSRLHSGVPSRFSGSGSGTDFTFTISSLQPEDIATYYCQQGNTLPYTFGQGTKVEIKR
data.value: 270000

Here's the next entry for you.
For the binder Tocilizumab (antibody, human IgG1, kappa, V domains shown, also called 25; 25(control)) VH: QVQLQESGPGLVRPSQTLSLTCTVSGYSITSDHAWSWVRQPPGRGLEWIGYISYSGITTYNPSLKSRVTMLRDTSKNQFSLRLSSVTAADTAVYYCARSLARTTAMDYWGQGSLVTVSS VL: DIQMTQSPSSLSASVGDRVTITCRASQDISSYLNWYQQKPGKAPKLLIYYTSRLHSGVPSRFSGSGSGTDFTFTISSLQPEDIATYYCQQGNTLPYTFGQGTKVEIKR , what kon is on record?
188000
